Origin of measurements: patent US4970301A

In this section we review reported solubility values for a set of compounds.
- protocol: Solubility in water
- Format: physicochemical
- measurement_context: addition salt
value_type: solubility (mg/mL)

compound | output_unit | measured_number
CCOC(=O)COc1cc(-c2cc(=O)c3c(O)cc(OCC(=O)N4CCN(Cc5ccc(OC)c(OC)c5OC)CC4)cc3o2)ccc1OC [Example 1 (monophosphate)] | mg/mL | 158
COc1ccc(-c2cc(=O)c3c(O)cc(OCC(=O)N4CCN(Cc5ccc(OC)c(OC)c5OC)CC4)cc3o2)cc1OCC(=O)N1CCN(Cc2ccc(OC)c(OC)c2OC)CC1 [Example 7 (biphosphate)] | mg/mL | 221
COc1ccc(C2CC(=O)c3c(O)cc(OCC(=O)N4CCN(Cc5ccc(OC)c(OC)c5OC)CC4)cc3O2)cc1O.CS(=O)(=O)O (stereo not drawn) [Example 8 (methanesulfonate)] | mg/mL | 1.4

====

Measured pIC50 by item
- system: phosphodiesterase
- protocol: Inhibition of the degradation of cyclic AMP by phosphodiesterase (spectrophotometry)
- measurement_context: rat brain enzyme extract, 25° C., 265 nm
pIC50: −log10 of the molar value.

compound | pIC50
CCOC(=O)COc1cc(OCC(=O)N2CCN(Cc3ccc(OC)c(OC)c3OC)CC2)c2c(=O)cc(-c3ccc(OC)c(OCC(=O)OCC)c3)oc2c1 | 4.70
COc1ccc(-c2cc(=O)c3c(O)cc(O[C@@H]4O[C@H](CO[C@@H]5O[C@@H](C)[C@H](O)[C@@H](O)[C@H]5O)[C@@H](O)[C@H](O)[C@H]4O)cc3o2)cc1O [DIOSMINE, diosmine, reference compound] | 4.00
COc1ccc(-c2cc(=O)c3c(O)cc(O[C@@H]4O[C@H](CO[C@@H]5O[C@@H](C)[C@H](O)[C@@H](O)[C@H]5O)[C@@H](O)[C@H](O)[C@H]4O)cc3o2)cc1OCC(=O)N1CCN(Cc2ccc(OC)c(OC)c2OC)CC1 | 4.60
Cn1c(=O)c2[nH]cnc2n(C)c1=O [THEOPHYLLINE, theophylline, reference compound] | 3.00
COc1ccc(C2CC(=O)c3c(O)cc(OCC(=O)N4CCN(Cc5ccc(OC)c(OC)c5OC)CC4)cc3O2)cc1O (stereo not drawn) | 4.24
COc1ccc(-c2cc(=O)c3c(O)cc(OCC(=O)N4CCN(Cc5ccc(OC)c(OC)c5OC)CC4)cc3o2)cc1OCC(=O)N1CCN(Cc2ccc(OC)c(OC)c2OC)CC1 | 5.00

====

- System: polymorphonuclear leukocytes
- protocol: Oxygen-containing free radical production by polymorphonuclear leukocytes (chemiluminescence)
- Assay type: cell-based
- measurement_context: Leukocyte; rat polymorphonuclear leukocytes, Zymosan, Luminol; read-out: IC50, inhibition of the chemiluminescence reaction (free radical production)
pIC50: −log10 of the molar value.
Items are presented alongside their recorded pIC50.
value_type: pIC50

compound | measured_number
COc1ccc(-c2cc(=O)c3c(O)cc(O[C@@H]4O[C@H](CO[C@@H]5O[C@@H](C)[C@H](O)[C@@H](O)[C@H]5O)[C@@H](O)[C@H](O)[C@H]4O)cc3o2)cc1O [DIOSMINE, diosmine, reference compound] | 4.40
CCOC(=O)COc1cc(O)c2c(=O)cc(-c3ccc(OC)c(OCC(=O)N4CCN(Cc5ccc(OC)c(OC)c5OC)CC4)c3)oc2c1 | 5.00
COc1ccc(C2CC(=O)c3c(O)cc(OCC(=O)N4CCN(Cc5ccc(OC)c(OC)c5OC)CC4)cc3O2)cc1O (stereo not shown) | 4.82
CCOC(=O)COc1cc(OCC(=O)N2CCN(Cc3ccc(OC)c(OC)c3OC)CC2)c2c(=O)cc(-c3ccc(OC)c(OCC(=O)OCC)c3)oc2c1 | 5.40
